Source: ChEMBL document CHEMBL6134844

List of IC50 values.
system: Plasmodium cynomolgi; experiment: Antiplasmodial activity against hypnozoite Plasmodium cynomolgi B strain infected in Macaca mulatta hepatocytes incubated with sporozoite containing salivary gland homogenate obtained from dissected Anopheles dirus mosquitoes (infected with Plasmodium cynomolgi B strain) treatment started on day 4 post infection and continued daily for 4 days into fresh changed media until day 8 assessed as Liver stage (LS) activity by measuring radical cure mode by immunofluorescent staining analysis; type: functional, organism-based; settings: Hepatocyte

{"molecule_smiles": "O=c1c2c([nH]c3cc(OC(F)(F)F)ccc13)CCCC2", "IC50": "> 20000 nM"}

Just so you know, measured IC50 for `O=c1c2cccc(Oc3ccc(OC(F)(F)F)cc3)c2[nH]c2cc(Cl)cc(F)c12` came out at > 20000 nM

// field: IC50; key: `O=c1c2ccc(OC3CCNCC3)cc2[nH]c2cc(F)cc(Cl)c12` ; value = > 20000 nM

The value of IC50 measured for the molecule `O=c1c2ccc(OCc3cccc(C(F)(F)F)c3)cc2[nH]c2ccc(Cl)c(F)c12` turned out to be 2190 nM

The measured IC50 associated with `O=c1c2ccc(OCc3ccc(C(F)(F)F)cc3)cc2[nH]c2cc(Cl)cc(F)c12` reads 910 nM

* * *

settings: mouse, microsomes, 1 h
Examples of compounds with documented CLH follow.
Your answer should be a plain number; it is taken to be in µL/min/mg.

Illustrative cases are given below, each with its answer.
{"molecule_smiles": "CN1CCC(Oc2ccc3c(=O)c4c(F)cc(Cl)cc4[nH]c3c2)CC1", "display_unit": "µL/min/mg", "recorded_result": 209.5}
{"molecule_smiles": "O=c1c2ccc(Oc3cccc(C(F)(F)F)c3)cc2[nH]c2cc(F)c(Cl)cc12", "display_unit": "µL/min/mg", "recorded_result": 14.2}

Entry `O=c1c2ccc(OCc3cccc(OC(F)(F)F)c3)cc2[nH]c2cc(F)cc(Cl)c12` ; CLH = 33.5

So for `O=c1c2c([nH]c3cc(OC(F)(F)F)ccc13)CCCC2` , the logged CLH turned out to be 21.3

Per the records, this compound ( `O=c1c2c([nH]c3cccc(Oc4ccc(OC(F)(F)F)cc4)c13)CCCC2` ) has CLH equal to 48

Briefly, CLH measured for `O=c1c2ccc(OCc3cccc(OC(F)(F)F)c3)cc2[nH]c2ccc(Cl)c(F)c12` : 21.8

* * *

Known CLH of a selection of compounds
settings: mouse, microsomes, 1 h
Could you give me the number in µL/min/mg? Just the number is fine.

{"molecule_smiles": "CCCCCCOc1ccc2c(=O)c3c([nH]c2c1)CCCC3", "display_unit": "µL/min/mg", "CLH": 37.6}
{"molecule_smiles": "O=c1c2c([nH]c3ccc(Oc4ccc(OC(F)(F)F)cc4)cc13)CCCC2", "display_unit": "µL/min/mg", "CLH": 56.8}

Entry under test: `O=c1c2ccc(OCc3cccc(OC(F)(F)F)c3)cc2[nH]c2cc(Cl)cc(F)c12` . Its CLH was 57.4

* * *

experiment: Tmax in male ICR-CD1 mouse plasma at 40 mg/kg, po; assay type: ADME, organism-based
quantity_name: Tmax (h)
Numbers only; they are read as h.

{"molecule_smiles": "O=c1c2c([nH]c3cc(Oc4ccc(OC(F)(F)F)cc4)ccc13)CCCC2", "recorded_result": 1}

Attention now shifts to the item below.
Sample `O=c1c2c([nH]c3cc(Oc4ccc(OC(F)(F)F)cc4)c(F)cc13)CCCC2` ; Tmax observed: 1
